# TESTED_TARGET: T1, human chemokine (C-C motif) receptor 8 (CCR8) (human, UniProt P51685 1-355)
# T1 construct: On human peripheral blood lymphocytes / PBMC (native) or on human CCR8 GFP-transfected Ba/F3 cells; also called hCCR8; human CCR8
# T1 sequence (P51685 whole entry): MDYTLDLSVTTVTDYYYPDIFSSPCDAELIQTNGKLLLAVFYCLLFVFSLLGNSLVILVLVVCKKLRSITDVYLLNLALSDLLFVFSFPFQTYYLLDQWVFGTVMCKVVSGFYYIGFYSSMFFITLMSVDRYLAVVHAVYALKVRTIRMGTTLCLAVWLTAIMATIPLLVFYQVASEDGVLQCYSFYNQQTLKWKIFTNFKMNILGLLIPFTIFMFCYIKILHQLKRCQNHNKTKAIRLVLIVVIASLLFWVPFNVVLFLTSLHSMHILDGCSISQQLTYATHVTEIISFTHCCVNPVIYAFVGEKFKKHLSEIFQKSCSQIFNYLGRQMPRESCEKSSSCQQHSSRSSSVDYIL
# TEST_DESCRIPTION: flow cytometry blocking, PBMC CCR8+ CD4+ cells; competitor PE-AB1 (its MFI is read)
This section presents binders with their documented % Blocking values.

As a guide, the following entries are already answered.
binder="AB2 (antibody, V domains shown, Hybridoma monoclonal; also called antibody 2; clone 2) VH: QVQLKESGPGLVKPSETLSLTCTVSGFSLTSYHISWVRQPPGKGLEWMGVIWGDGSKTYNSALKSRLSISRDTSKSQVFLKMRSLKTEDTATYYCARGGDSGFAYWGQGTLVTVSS VL: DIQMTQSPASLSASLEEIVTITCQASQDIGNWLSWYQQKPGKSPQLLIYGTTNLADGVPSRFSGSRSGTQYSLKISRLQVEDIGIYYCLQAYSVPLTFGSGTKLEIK" recorded_measurement=13.5%
binder="AB8 (antibody, V domains shown, Hybridoma monoclonal; also called antibody 8; clone 8) VH: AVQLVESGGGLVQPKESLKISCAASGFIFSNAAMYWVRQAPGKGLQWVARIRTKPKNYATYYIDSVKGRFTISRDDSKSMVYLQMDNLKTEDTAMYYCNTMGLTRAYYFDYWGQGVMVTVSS VL: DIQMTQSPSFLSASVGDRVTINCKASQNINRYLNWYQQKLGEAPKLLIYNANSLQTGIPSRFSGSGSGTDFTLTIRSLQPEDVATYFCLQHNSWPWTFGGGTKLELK" recorded_measurement=-49.5%

For the next question, use this binder.
Reported % Blocking, binder AB13 (antibody, V domains shown, Hybridoma monoclonal; also called antibody 13; clone 13) VH: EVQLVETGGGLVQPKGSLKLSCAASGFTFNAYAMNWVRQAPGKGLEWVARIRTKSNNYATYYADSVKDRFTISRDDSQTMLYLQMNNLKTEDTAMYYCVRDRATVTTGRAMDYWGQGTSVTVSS VL: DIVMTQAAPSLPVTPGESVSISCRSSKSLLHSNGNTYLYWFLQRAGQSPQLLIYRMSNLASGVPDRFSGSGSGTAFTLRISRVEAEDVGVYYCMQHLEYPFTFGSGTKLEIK : ____
-41.5%
